- target entity: Human immunodeficiency virus type 1 reverse transcriptase (Human immunodeficiency virus 1)
- test: In vitro inhibition of wild type resistant reverse transcriptase at a concentration of 10 uM.
Kind request: treat 30% as inclusive, so inhibition at 30% or higher is YES, anything lower is NO.

[
  {
    "sample smiles": "CCc1c(CCOC)nn(-c2ccccc2)c1-c1ccccc1",
    "group label": "NO"
  },
  {
    "sample smiles": "COCc1c(C)nn(-c2ccccc2)c1-c1ccccc1",
    "group label": "NO"
  },
  {
    "sample smiles": "Cc1nn(-c2ccccc2)c(-c2ccccc2)c1CC(=O)O",
    "group label": "NO"
  },
  {
    "sample smiles": "CCc1c(CC(=O)NC)nn(-c2ccccc2)c1-c1ccccc1",
    "group label": "NO"
  },
  {
    "sample smiles": "CCc1c(CC(=O)O)nn(-c2ccccc2)c1-c1ccccc1",
    "group label": "NO"
  },
  {
    "sample smiles": "CCCc1c(C)nn(-c2ccccc2)c1-c1ccccc1",
    "group label": "YES"
  },
  {
    "sample smiles": "CC#Cc1c(C)nn(-c2ccccc2)c1-c1ccccc1",
    "group label": "YES"
  },
  {
    "sample smiles": "Cc1nn(-c2ccccc2)c(-c2ccccc2)c1C(=O)O",
    "group label": "NO"
  },
  {
    "sample smiles": "Cc1nn(-c2ccccc2)c(-c2ccccc2)c1CC#N",
    "group label": "YES"
  },
  {
    "sample smiles": "Cc1nn(-c2ccccc2)c(-c2ccccc2)c1C",
    "group label": "NO"
  },
  {
    "sample smiles": "CCc1c(C)nn(-c2ccccc2)c1-c1ccccc1",
    "group label": "YES"
  },
  {
    "sample smiles": "CCc1c(CCO)nn(-c2ccccc2)c1-c1ccccc1",
    "group label": "NO"
  }
]
